// reported koff for each item listed
Target: ROR1 (antigen of the KD determination and of the Octet dissociation measurement) (UniProt Q01973 30-403, limits assumed)
Sequence (Q01973 30-403 limits assumed): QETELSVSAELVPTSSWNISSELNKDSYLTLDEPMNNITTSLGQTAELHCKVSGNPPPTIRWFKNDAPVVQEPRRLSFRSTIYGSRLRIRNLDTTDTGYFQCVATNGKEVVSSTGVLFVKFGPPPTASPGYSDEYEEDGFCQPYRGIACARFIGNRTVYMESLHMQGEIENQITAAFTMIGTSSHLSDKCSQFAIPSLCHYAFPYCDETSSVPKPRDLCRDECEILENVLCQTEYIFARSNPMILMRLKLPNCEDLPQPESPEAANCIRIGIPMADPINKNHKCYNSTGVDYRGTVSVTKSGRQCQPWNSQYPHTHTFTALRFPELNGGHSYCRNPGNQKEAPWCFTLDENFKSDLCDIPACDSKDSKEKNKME
Assay: Octet, antigen form not stated
Just the number in s⁻¹, nothing appended.

- binder: "PR002585 (antibody, human IgG1, kappa, V domains shown, PR001369 variant: VH G55A; hIgG1; also called anti-ROR1 1015M3-H10(H: G55A) hIgG1) VH: QVQLVESGGGVVQPGRSLRLSCAASGFTFSNYGIHWVRQAPGKGLEWVAIMWYDASNTDYADSVKGRFTISRDTSKNTLFLQMNSLRAEDTAVYYCAREQARSFDLWGRGTLVTVSS VL: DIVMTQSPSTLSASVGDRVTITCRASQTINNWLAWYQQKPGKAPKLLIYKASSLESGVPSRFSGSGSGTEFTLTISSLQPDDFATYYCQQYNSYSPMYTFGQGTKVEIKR"
  recorded-number: 0.000389
- binder: "PR001364 (antibody, human IgG1, kappa, V domains shown, fully human IgG1, kappa; also called anti-ROR1 1015M3-D8 hIgG1; PR001364(WT)) VH: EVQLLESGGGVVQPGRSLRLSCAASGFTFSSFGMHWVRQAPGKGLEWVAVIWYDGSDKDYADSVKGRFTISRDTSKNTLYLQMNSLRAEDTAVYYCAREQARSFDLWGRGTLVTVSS VL: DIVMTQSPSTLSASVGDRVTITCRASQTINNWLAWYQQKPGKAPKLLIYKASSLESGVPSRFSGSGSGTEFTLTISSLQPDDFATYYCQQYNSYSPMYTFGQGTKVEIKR"
  recorded-number: "9.38e-05"
- binder: "PR002568 (antibody, human IgG1, kappa, V domains shown, PR001354 variant: VH G55A, VL N92Q; hIgG1; also called anti-ROR1 1015M2-C9(H: G55A; L: N92Q) hIgG1) VH: QVQLVQSGGGVVQPGRSLRLSCAASGFTFSSYGMHWVRQAPGKGLEWVAIMWYDASDKDYADSVKGRFTISRDTSKNTLYLQMNSLRAEDTAVYYCAREQARSFDLWGRGTLVTVSS VL: DIVMTQSPSSLSASVGDRVTITCRASQTINNWLAWYQQKPGKAPKLLIYKASSLESGVPSRFSGSGSGTEFTLTISSLQPDDFATYYCQQYQSYSPMYTFGQGTKVEIKR"
  recorded-number: 0.00014
- binder: "PR002577 (antibody, human IgG1, kappa, V domains shown, PR001364 variant: VH G55A; hIgG1; also called anti-ROR1 1015M3-D8(H: G55A) hIgG1) VH: EVQLLESGGGVVQPGRSLRLSCAASGFTFSSFGMHWVRQAPGKGLEWVAVIWYDASDKDYADSVKGRFTISRDTSKNTLYLQMNSLRAEDTAVYYCAREQARSFDLWGRGTLVTVSS VL: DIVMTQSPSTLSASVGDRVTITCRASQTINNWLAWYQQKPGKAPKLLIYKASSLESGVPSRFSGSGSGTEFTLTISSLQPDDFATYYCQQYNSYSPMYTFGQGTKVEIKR"
  recorded-number: 0.000601

Consider the additional binder presented here.
Fill in the blank: the reported koff of PR001356 (antibody, human IgG1, kappa, V domains shown, fully human IgG1, kappa; also called anti-ROR1 1015M2-E6 hIgG1; PR001356(WT)) VH: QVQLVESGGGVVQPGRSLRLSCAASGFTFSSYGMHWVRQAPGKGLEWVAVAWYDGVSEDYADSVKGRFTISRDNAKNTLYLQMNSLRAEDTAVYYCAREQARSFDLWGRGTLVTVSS VL: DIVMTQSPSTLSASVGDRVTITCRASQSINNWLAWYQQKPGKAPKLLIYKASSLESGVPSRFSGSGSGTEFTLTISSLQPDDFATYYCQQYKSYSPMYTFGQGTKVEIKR is ____.
0.000152
